- system: Phosphotyrosine-protein phosphatase PTPB (Mycobacterium tuberculosis, UniProt P96830)
- assay.summary: Inhibition of Mycobacterium tuberculosis N-terminal His6-tagged PTPB
pIC50: −log10 of the molar value.
I would appreciate it if you labelled entries 1 (yes) when pIC50 is 5 or higher, otherwise 0 (no).

INSERT INTO measurements (compound, discrete_label) VALUES
  ('CCCCCOC(=O)c1c(C)oc2ccc(NS(=O)(=O)c3ccc4c5c(cccc35)C(=O)N4)cc12', '0 (no)'),
  ('O=C1Nc2ccc(S(=O)(=O)Nc3cc(Cl)c(O)c4ccccc34)c3cccc1c23', '0 (no)'),
  ('CCCCCCCOC(=O)c1c(C)oc2ccc(NS(=O)(=O)c3ccc4c5c(cccc35)C(=O)N4)cc12', '0 (no)'),
  ('CCCCc1ccc(NS(=O)(=O)c2ccc3c4c(cccc24)C(=O)N3)cc1', '1 (yes)'),
  ('COc1ccc(N2CCN(C(c3cccs3)C(C)NC(=O)C(=O)NCc3ccco3)CC2)cc1 (stereo not given)', '1 (yes)'),
  ('CC(NC(=O)C(=O)NCc1ccc2c(c1)OCO2)C(c1cccs1)N1CCN(c2ccccc2)CC1 (stereo not given)', '0 (no)');

###

- system: Phosphotyrosine-protein phosphatase PTPB (Mycobacterium tuberculosis, UniProt P96830)
- Sequence (P96830 whole entry): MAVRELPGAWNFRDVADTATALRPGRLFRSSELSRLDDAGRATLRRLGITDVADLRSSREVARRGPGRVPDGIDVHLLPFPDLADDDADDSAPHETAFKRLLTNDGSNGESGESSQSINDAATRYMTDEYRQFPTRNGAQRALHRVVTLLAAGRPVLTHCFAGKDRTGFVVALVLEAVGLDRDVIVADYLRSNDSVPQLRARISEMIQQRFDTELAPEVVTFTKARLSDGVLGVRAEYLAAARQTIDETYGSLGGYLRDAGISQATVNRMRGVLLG
- assay.summary: Non-competitive inhibition of Mycobacterium tuberculosis N-terminal His6-tagged PTPB assessed as production of p-nitrophenol from pNPP substrate by Lineweaver-Burk plot analysis
pKi: −log10 of the molar value.
value.kind: pKi

INSERT INTO results (compound_structure_string, measured) VALUES
  ('CCCCc1ccc(NS(=O)(=O)c2ccc3c4c(cccc24)C(=O)N3)cc1', 5.96);

###

- system: Phosphotyrosine-protein phosphatase PTPB (Mycobacterium tuberculosis, UniProt P96830)
- assay.summary: Inhibition of Mycobacterium tuberculosis N-terminal His6-tagged PTPB
Measured IC50 by item
value.kind: IC50 (µM)

INSERT INTO results (compound, value_kind, readout_unit, measured) VALUES
  ('CC(NC(=O)C(=O)NCc1cccnc1)C(c1cccs1)N1CCN(c2ccc(F)cc2)CC1 (centres undefined)', 'IC50', 'µM', 9.1),
  ('O=C1Nc2ccc(S(=O)(=O)Nc3ccc4oc5c(c4c3)CCCC5)c3cccc1c23', 'IC50', 'µM', 10.3),
  ('CC(NC(=O)C(=O)NCCc1c[nH]c2ccccc12)C(c1cccs1)N1CCN(c2ccc(F)cc2)CC1 (centres undefined)', 'IC50', 'µM', 12.1),
  ('COc1ccccc1CNC(=O)C(=O)NC(C)C(c1cccs1)N1CCN(c2ccc(F)cc2)CC1 (centres undefined)', 'IC50', 'µM', 11.4);
